- TEST SYSTEM: T1, full-length recombinant human PAD4 (human, UniProt Q9UM07 1-663)
- T1 construct: Full-length recombinant; also called peptidylarginine deiminase 4
- T1 sequence (Q9UM07 whole entry): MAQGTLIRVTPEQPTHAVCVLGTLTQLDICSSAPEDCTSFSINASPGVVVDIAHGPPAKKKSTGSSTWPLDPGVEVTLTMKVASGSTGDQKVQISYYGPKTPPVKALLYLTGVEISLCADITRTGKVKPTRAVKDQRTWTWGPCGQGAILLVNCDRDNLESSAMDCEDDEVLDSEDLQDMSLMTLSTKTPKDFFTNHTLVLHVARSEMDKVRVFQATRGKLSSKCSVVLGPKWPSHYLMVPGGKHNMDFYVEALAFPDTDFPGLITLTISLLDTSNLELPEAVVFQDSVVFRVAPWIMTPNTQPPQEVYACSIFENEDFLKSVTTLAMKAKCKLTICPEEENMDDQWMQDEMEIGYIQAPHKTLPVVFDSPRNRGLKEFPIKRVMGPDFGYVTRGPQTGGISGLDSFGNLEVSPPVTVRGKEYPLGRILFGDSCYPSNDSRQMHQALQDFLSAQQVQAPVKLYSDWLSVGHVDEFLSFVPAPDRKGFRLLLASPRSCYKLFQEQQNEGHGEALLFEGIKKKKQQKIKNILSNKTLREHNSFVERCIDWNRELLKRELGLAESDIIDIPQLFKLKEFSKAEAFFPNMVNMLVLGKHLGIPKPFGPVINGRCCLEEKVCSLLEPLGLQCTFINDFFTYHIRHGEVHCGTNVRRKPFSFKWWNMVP
- ASSAY NAME: ELISA, coated human PAD4; antibody 0.0625 ug/mL
MEASURED QUANTITY: OD 490/630 nm

[
  {
    "BINDER": "E9 (antibody, V domains shown, Chicken variable regions in a mouse chimeric antibody (IgG1); also called anti-PAD4 antibody E9) VH: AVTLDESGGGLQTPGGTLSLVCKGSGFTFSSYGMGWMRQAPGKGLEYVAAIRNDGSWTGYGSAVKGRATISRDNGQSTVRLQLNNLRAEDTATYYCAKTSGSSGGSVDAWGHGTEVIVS VL: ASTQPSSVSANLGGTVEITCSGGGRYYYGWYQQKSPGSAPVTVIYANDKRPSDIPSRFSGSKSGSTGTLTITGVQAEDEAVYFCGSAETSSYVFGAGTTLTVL",
    "OD 490/630 nm": 2.12
  },
  {
    "BINDER": "H7 (antibody, V domains shown, Chicken variable regions in a mouse chimeric antibody (IgG1); also called anti-PAD4 antibody H7) VH: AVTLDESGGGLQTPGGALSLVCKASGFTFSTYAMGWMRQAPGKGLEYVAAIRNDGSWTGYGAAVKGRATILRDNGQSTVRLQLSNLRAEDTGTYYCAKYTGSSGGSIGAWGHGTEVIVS VL: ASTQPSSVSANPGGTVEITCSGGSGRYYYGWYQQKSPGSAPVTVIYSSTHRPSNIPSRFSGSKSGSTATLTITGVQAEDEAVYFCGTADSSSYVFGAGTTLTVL",
    "OD 490/630 nm": 2.12
  }
]

# input for lookup
Problem: Need OD 490/630 nm of G6 (antibody, V domains shown, Chicken variable regions in a mouse chimeric antibody (IgG1); also called anti-PAD4 antibody G6) VH: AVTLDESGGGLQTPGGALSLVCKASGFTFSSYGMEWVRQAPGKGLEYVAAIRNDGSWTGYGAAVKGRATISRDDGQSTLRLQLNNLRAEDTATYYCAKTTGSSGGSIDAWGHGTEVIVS VL: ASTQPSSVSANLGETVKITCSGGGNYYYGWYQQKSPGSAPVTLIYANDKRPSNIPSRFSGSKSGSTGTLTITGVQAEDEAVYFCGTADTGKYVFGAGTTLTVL , thanks.
Solution: 2.12
